From: ChEMBL document CHEMBL5257069

molecular target: Chymotrypsin (Homo sapiens) (UniProt Q99895+P17538+P40313+Q6GPI1); assay: Binding affinity to recombinant human chymotrypsin assessed as increase in fluorescence using H2-OPT as substrate at 1 uM by SDS-PAGE based gel fluorescence scanning analysis; assay type: protein assay
Active and inactive are the calls of the source. The calls are words filed in the database; no cut-off is given here.
Pick one and only one: T for active, F for inactive

SMILES NOTATION	GROUP LABEL
CC(C)C[C@H](NC(=O)[C@H](CCCCN)NC(=O)[C@H](Cc1ccc2ccccc2c1)NC(=O)CCCCCNC(=O)c1ccc(C(=O)O)c(-c2c3ccc(=O)cc-3oc3cc(O)ccc23)c1)C(=O)N[C@@H](C(C)C)P(=O)(Oc1ccccc1)Oc1ccccc1	T
CC(C)C[C@H](NC(=O)[C@H](CCCCN)NC(=O)[C@H](Cc1ccc2ccccc2c1)NC(=O)CCCCCNC(=O)c1ccc(C(=O)O)c(-c2c3ccc(=O)cc-3oc3cc(O)ccc23)c1)C(=O)N[C@@H](CC(C)C)P(=O)(Oc1ccccc1)Oc1ccccc1	T

Query: What did the test return for CC(C)C[C@H](NC(=O)CCCCCNC(=O)c1ccc(C(=O)O)c(-c2c3ccc(=O)cc-3oc3cc(O)ccc23)c1)C(=O)N[C@@H](Cc1ccc2ccccc2c1)C(=O)N[C@@H](CC(C)C)C(=O)N[C@@H](C(C)C)P(=O)(Oc1ccccc1)Oc1ccccc1 ?
Result: T

Query: What did the test return for CC(C)C[C@H](NC(=O)CCCCCNC(=O)c1ccc(C(=O)O)c(-c2c3ccc(=O)cc-3oc3cc(O)ccc23)c1)C(=O)N[C@@H](Cc1ccccc1)C(=O)NC1(C(=O)N[C@@H](C(C)C)P(=O)(Oc2ccccc2)Oc2ccccc2)CC1 ?
Result: F

Query: What did the test return for CC(C)C[C@H](NC(=O)C1(NC(=O)[C@H](CCCCN)NC(=O)[C@H](Cc2ccccc2)NC(=O)CCCCCNC(=O)c2ccc(C(=O)O)c(-c3c4ccc(=O)cc-4oc4cc(O)ccc34)c2)CC1)P(=O)(Oc1ccccc1)Oc1ccccc1 ?
Result: F

Query: What did the test return for CC(C)[C@H](NC(=O)C1(NC(=O)[C@H](CCCCN)NC(=O)[C@H](Cc2ccccc2)NC(=O)CCCCCNC(=O)c2ccc(C(=O)O)c(-c3c4ccc(=O)cc-4oc4cc(O)ccc34)c2)CC1)P(=O)(Oc1ccccc1)Oc1ccccc1 ?
Result: F

###

target: Neutrophil elastase (Homo sapiens) (UniProt P08246); test: Binding affinity to recombinant human neutrophil elastase assessed as increase in fluorescence using H2-OPT as substrate at 1 uM by SDS-PAGE based gel fluorescence scanning analysis; type: single protein
Sequence (P08246 whole entry): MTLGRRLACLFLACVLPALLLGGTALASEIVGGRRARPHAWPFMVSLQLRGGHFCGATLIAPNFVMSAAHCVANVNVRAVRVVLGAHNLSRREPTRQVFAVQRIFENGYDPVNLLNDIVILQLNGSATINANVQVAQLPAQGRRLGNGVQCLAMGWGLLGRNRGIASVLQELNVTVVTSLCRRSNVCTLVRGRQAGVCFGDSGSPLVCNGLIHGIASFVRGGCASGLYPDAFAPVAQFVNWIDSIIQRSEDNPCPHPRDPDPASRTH
Calls of active or inactive are those of the source. The calls are words filed in the database; no cut-off is given here.
Pick one and only one: Y (active), N (inactive)

SMILES NOTATION	GROUP LABEL
CC(C)C[C@H](NC(=O)CCCCCNC(=O)c1ccc(C(=O)O)c(-c2c3ccc(=O)cc-3oc3cc(O)ccc23)c1)C(=O)N[C@@H](Cc1ccc2ccccc2c1)C(=O)N[C@@H](CC(C)C)C(=O)N[C@@H](C(C)C)P(=O)(Oc1ccccc1)Oc1ccccc1	Y

Query: What did the test return for CC(C)C[C@H](NC(=O)[C@H](CCCCN)NC(=O)[C@H](Cc1ccc2ccccc2c1)NC(=O)CCCCCNC(=O)c1ccc(C(=O)O)c(-c2c3ccc(=O)cc-3oc3cc(O)ccc23)c1)C(=O)N[C@@H](CC(C)C)P(=O)(Oc1ccccc1)Oc1ccccc1 ?
Result: Y

Query: What did the test return for CC(C)C[C@H](NC(=O)CCCCCNC(=O)c1ccc(C(=O)O)c(-c2c3ccc(=O)cc-3oc3cc(O)ccc23)c1)C(=O)N[C@@H](Cc1ccccc1)C(=O)NC1(C(=O)N[C@@H](C(C)C)P(=O)(Oc2ccccc2)Oc2ccccc2)CC1 ?
Result: N

Query: What did the test return for CC(C)C[C@H](NC(=O)[C@H](CCCCN)NC(=O)[C@H](Cc1ccc2ccccc2c1)NC(=O)CCCCCNC(=O)c1ccc(C(=O)O)c(-c2c3ccc(=O)cc-3oc3cc(O)ccc23)c1)C(=O)N[C@@H](C(C)C)P(=O)(Oc1ccccc1)Oc1ccccc1 ?
Result: Y

Query: What did the test return for CC(C)C[C@H](NC(=O)C1(NC(=O)[C@H](CCCCN)NC(=O)[C@H](Cc2ccccc2)NC(=O)CCCCCNC(=O)c2ccc(C(=O)O)c(-c3c4ccc(=O)cc-4oc4cc(O)ccc34)c2)CC1)P(=O)(Oc1ccccc1)Oc1ccccc1 ?
Result: N

Query: What did the test return for CC(C)[C@H](NC(=O)C1(NC(=O)[C@H](CCCCN)NC(=O)[C@H](Cc2ccccc2)NC(=O)CCCCCNC(=O)c2ccc(C(=O)O)c(-c3c4ccc(=O)cc-4oc4cc(O)ccc34)c2)CC1)P(=O)(Oc1ccccc1)Oc1ccccc1 ?
Result: N
